Each entry below carries its reported shrunken log2 fold change.
Tested on: Escherichia coli TOP10;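 note: peptides expressed intracellularly from a pBAD plasmid library in pooled LB shake-flask culture, induced with 0.3% L-arabinose, DNA abundance read by NGS, three biological replicates, DESeq2 with apeglm shrinkage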
Assay: shrunken log2 fold change of peptide-encoding DNA abundance (4.5 h post-induction vs induction); higher = less antimicrobial activity (less host growth inhibition)
Settings: time post-induction: 4.5 h; library: site-saturation at positions 5, 18, 19, 20
observed.property: shrunken log2 fold change

> print(dat)
           ordered.residues  recorded.result
 1  RRIRNRPPRLPRPRPRPCCFPRP           -0.278
 2  RRIRRRPPRLPRPRPRPMHSPRP             0.36
 3  RRIRYRPPRLPRPRPRPGWAPRP           0.0172
 4  RRIRQRPPRLPRPRPRPHTIPRP           -0.412
 5  RRIRHRPPRLPRPRPRPNQNPRP           -0.285
 6  RRIRKRPPRLPRPRPRPPPCPRP            0.585
 7  RRIRWRPPRLPRPRPRPNWEPRP         -0.00663
 8  RRIRERPPRLPRPRPRPLNWPRP           -0.373
 9  RRIRHRPPRLPRPRPRPTLRPRP          -0.0301
10  RRIRYRPPRLPRPRPRPLAEPRP           -0.149
11  RRIRKRPPRLPRPRPRPSGLPRP          -0.0301
12  RRIRERPPRLPRPRPRPRSKPRP          0.00172
13  RRIRNRPPRLPRPRPRPKKFPRP          -0.0756
14  RRIRMRPPRLPRPRPRPNWGPRP            0.448
15  RRIRCRPPRLPRPRPRPYNEPRP            -0.51
16  RRIRGRPPRLPRPRPRPWSFPRP           -0.113
17  RRIRWRPPRLPRPRPRPTYRPRP            0.146
18  RRIRWRPPRLPRPRPRPCIPPRP          -0.0746
19  RRIRERPPRLPRPRPRPYPAPRP           -0.544
20  RRIRWRPPRLPRPRPRPQHAPRP          -0.0577
21  RRIRNRPPRLPRPRPRPKQPPRP          0.00591
22  RRIRSRPPRLPRPRPRPLDVPRP            -0.21
23  RRIRNRPPRLPRPRPRPVICPRP           -0.102
24  RRIRLRPPRLPRPRPRPDINPRP           -0.665
25  RRIRSRPPRLPRPRPRPKIYPRP           -0.265
26  RRIRVRPPRLPRPRPRPRQKPRP            0.212
27  RRIRWRPPRLPRPRPRPWYYPRP           -0.321
28  RRIRYRPPRLPRPRPRPKEMPRP           -0.259
29  RRIRDRPPRLPRPRPRPDTFPRP          -0.0268
30  RRIRPRPPRLPRPRPRPWWFPRP           -0.133
31  RRIRFRPPRLPRPRPRPMRPPRP            0.654
32  RRIRVRPPRLPRPRPRPMEFPRP            -0.03
33  RRIRWRPPRLPRPRPRPGAYPRP            0.109
34  RRIRRRPPRLPRPRPRPWYHPRP          -0.0689
35  RRIRCRPPRLPRPRPRPGYGPRP           -0.273
36  RRIRDRPPRLPRPRPRPCIIPRP          -0.0943
37  RRIRCRPPRLPRPRPRPIWQPRP            0.102
38  RRIRWRPPRLPRPRPRPALMPRP            0.159
39  RRIRLRPPRLPRPRPRPTWLPRP            0.584
40  RRIRFRPPRLPRPRPRPPKKPRP            0.847
41  RRIRLRPPRLPRPRPRPFTHPRP           -0.342
42  RRIRIRPPRLPRPRPRPEKIPRP          -0.0431
43  RRIRIRPPRLPRPRPRPIRIPRP           0.0736
44  RRIRIRPPRLPRPRPRPVRVPRP            0.458
45  RRIRNRPPRLPRPRPRPYQDPRP           -0.064
46  RRIRRRPPRLPRPRPRPSYFPRP           -0.395
47  RRIRCRPPRLPRPRPRPSAGPRP            0.194
48  RRIRDRPPRLPRPRPRPCDAPRP          -0.0239
49  RRIRRRPPRLPRPRPRPHFDPRP            0.216
50  RRIRGRPPRLPRPRPRPLREPRP             1.85
51  RRIRPRPPRLPRPRPRPERTPRP            0.291
52  RRIRLRPPRLPRPRPRPWTCPRP            -0.54
53  RRIRFRPPRLPRPRPRPLVAPRP         -0.00793
54  RRIRHRPPRLPRPRPRPPGPPRP            0.196
55  RRIRGRPPRLPRPRPRPFCMPRP           0.0902
56  RRIRPRPPRLPRPRPRPRHYPRP            0.101
57  RRIRRRPPRLPRPRPRPHYWPRP           0.0315
58  RRIRSRPPRLPRPRPRPTSHPRP          -0.0965
59  RRIRNRPPRLPRPRPRPKPFPRP           -0.104
60  RRIRLRPPRLPRPRPRPVKAPRP          -0.0553
61  RRIRGRPPRLPRPRPRPQPLPRP             0.45
62  RRIRCRPPRLPRPRPRPCWGPRP           -0.195
63  RRIRSRPPRLPRPRPRPSSTPRP           -0.397

All values here come from the supplement of paper PMC9112550.
